Entries annotated with measured pKi
assay: Inhibition of Inositol 1,4,5-trisphosphate 3-kinase from rat brain homogenate (r metabolically resistant)
Scale note: pKi = -log10(concentration in M).

>>> df
                                   compound  value
0  O=P(O)(O)OC1[C@H](O)CC(OP(=O)(O)O)[C@H](OP(=O)(O)O)[C@@H]1O (some centres not stated)   4.60

In the following, a different compound is considered.
Enquiry: Check the records and state pKi for O=P(O)(O)OC1CCC(OP(=O)(O)O)[C@H](OP(=O)(O)O)[C@@H]1O (some centres not stated)
Return: 4.72

* * *

test: Inhibition of Inositol 1,4,5-trisphosphate 3-kinase from rat brain homogenate (R metabolically resistant)
result.type: Ki

Enquiry: Check the records and state Ki for O=S(=O)(O)CC1CC[C@H](CS(=O)(=O)O)C[C@H]1CS(=O)(=O)O (stereo partly specified)
Return: > 600 µM
